Examples of compounds with documented Max Fold Serum Leukocyte Depletion follow.
Test system: leukocytes
cond: rat, in vivo

compound	Max Fold Serum Leukocyte Depletion (fold)
CCO	0
Nc1ccn([C@@H]2O[C@H](CO)[C@@H](O)[C@@H]2O)c(=O)n1	2.85
CN(C)c1nc(N(C)C)nc(N(C)C)n1	0
CC(C)(c1ccc(O)cc1)c1ccc(O)cc1	0
CS(=O)(=O)OCCCCOS(C)(=O)=O	0
NC(=O)NO [HYDROXYUREA]	2.92
COc1cccc2c1C(=O)c1c(O)c3c(c(O)c1C2=O)C[C@@](O)(C(=O)CO)C[C@@H]3O[C@H]1C[C@H](N)[C@H](O)[C@H](C)O1	4.70
COc1cc([C@@H]2c3cc4c(cc3[C@@H](O[C@@H]3O[C@@H]5CO[C@@H](C)O[C@H]5[C@H](O)[C@H]3O)[C@H]3COC(=O)[C@H]23)OCO4)cc(OC)c1O [ETOPOSIDE]	2.04
C[C@H]1O[C@@H](n2cc(F)c(=O)[nH]c2=O)[C@H](O)[C@@H]1O	0
CN(Cc1cnc2nc(N)nc(N)c2n1)c1ccc(C(=O)N[C@@H](CCC(=O)O)C(=O)O)cc1 [METHOTREXATE]	4.35
Cn1cnc([N+](=O)[O-])c1Sc1ncnc2nc[nH]c12	0
Cc1oncc1C(=O)Nc1ccc(C(F)(F)F)cc1 [LEFLUNOMIDE]	2.89
Oc1c(Cl)cc(Cl)cc1Sc1cc(Cl)cc(Cl)c1O	0
CCC1=C[C@@H]2CN(C1)Cc1c([nH]c3ccccc13)[C@@](C(=O)OC)(c1cc3c(cc1OC)N(C)[C@H]1[C@@](O)(C(=O)OC)[C@H](OC(C)=O)[C@]4(CC)C=CCN5CC[C@]31[C@@H]54)C2	1.93
Nc1nc2nc[nH]c2c(=S)[nH]1	3.63

Origin of measurements: patent US7519519B1
